system: MDA-MB-231; assay: NCI tumour cell line growth inhibition, 48 h
Activity calls are given as the source filed them. No stated cut-off is given here; in the data, active = GI50 up to about 1.1 µM and inactive = higher.
Pick from Y = active, N = inactive when you respond.

// param item: `c1ccc(CCNc2ccccn2)nc1` ; yields the recorded call
N

// param item: `CCOC(=O)c1ccc2c(c1)Cc1cc([N+](=O)[O-])ccc1-2` ; yields the recorded call
N

// param item: `C=CCNC(=S)N/C=C(/C(C)=O)C(=O)Nc1ccccc1C` ; yields the recorded call
N

// param item: `CN(C)CCCN1c2ccc([N+](=O)[O-])cc2CCc2cc([N+](=O)[O-])ccc21` ; yields the recorded call
N

----------
system: RXF 631; assay: NCI tumour cell line growth inhibition, 48 h
The source made the active and inactive calls. Rule as the data show it: active = GI50 up to about 1.1 µM and inactive = higher.
PROPERTY MEASURED: GI50

Example entries begin here.
COc1c2c(c3c(c1C1OC(C)[C@@H](C)O1)CC(C)(C)O3)C(=O)c1ccccc1C2=O (stereo not given in full); 9.91 µM (inactive)
CSc1nc2c(nc(N)n2C2OCC(O)C(O)C2O)c(=O)n1C (stereo not given); > 100 µM (inactive)
O=C(O)c1cc2ccc(Cl)cc2c(O)c1C1=CCCCC1; 32.1 µM (inactive)

I am curious: what GI50 value has been reported for `CC1(c2cc3c(cc2Br)OCO3)SCCCS1` ?
44.9 µM (inactive)

I am curious: what GI50 value has been reported for Cc1cccc(C(C)C)c1NC(=O)CC1C(=O)Nc2ccccc2S1(=O)=O (stereo not given) ?
13.4 µM (inactive)

----------
tested on: Hs-578T; experiment: NCI tumour cell line growth inhibition, 48 h
Activity calls are given as the source filed them. No stated cut-off is given here; in the data, active = GI50 up to about 1.1 µM and inactive = higher.
PROPERTY MEASURED: GI50

Example entries begin here.
O=C1C(Cl)=C(N2C(=O)CCCC2=O)C(=O)c2ccccc21; 31.2 µM (inactive)
O=c1c2ccccc2nc(-c2ccccc2)n1/N=C/c1ccccc1[N+](=O)[O-]; 1.59 µM (inactive)
CN(CCc1ccccn1)C(=S)N/N=C(\c1ccccc1)c1ccccn1; 1.91 µM (inactive)

I am curious: what GI50 value has been reported for N#Cc1c(-c2ccccc2)cc(-c2ccccc2)n(C2OCC(O)C(O)C2O)c1=S (stereo not given) ?
29.6 µM (inactive)

I am curious: what GI50 value has been reported for `O=C(CCc1cccc(O)c1)NCCc1cccc(OCc2ccccc2)c1` ?
16.4 µM (inactive)

I am curious: what GI50 value has been reported for `O=C(Nc1ccccc1C(=O)O)C(=Cc1ccccc1O)NC(=O)c1ccccc1` ?
> 100 µM (inactive)

I am curious: what GI50 value has been reported for COC(=O)[C@@]1(C)CCC[C@]2(C(=O)O)C3Cc4occc4[C@H](C)[C@@H]3CCC21 (stereo not given in full) ?
29.4 µM (inactive)

I am curious: what GI50 value has been reported for `CC(C)CCC/C(CBr)=C(\Cl)CCl` ?
2.45 µM (inactive)

I am curious: what GI50 value has been reported for O=C(O)c1c(CC(Cc2ccccc2)C(=O)O)ccc2c1CCC2 (stereo not given) ?
> 100 µM (inactive)

----------
Each entry below lists one item and its recorded GI50 value.
test system: SK-MEL-5; assay: NCI tumour cell line growth inhibition, 48 h
Activity calls are given as the source filed them. No stated cut-off is given here; in the data, active = GI50 up to about 1.1 µM and inactive = higher.

Example entries begin here.
CC(=O)O[C@H]1CC[C@@]2(C)C(=CC[C@@H]3C2CC[C@]2(C)Nc4c(cnn4-c4ccccc4)CC32)C1 (stereo partly specified); 28.1 µM (inactive)
C/C(=N\NS(=O)(=O)c1ccc(C)cc1)P(=O)(O)O; > 100 µM (inactive)
CCOc1cnc(C(O)(c2ccccc2)c2ccccc2)o1; > 100 µM (inactive)
COc1cc2c3c(c1OC)-c1ccccc1C(C(O)c1ccccc1)C3N(C)CC2 (stereo unspecified); 14.4 µM (inactive)
O=C(O)CC[N+]1=CCC(c2ccccc2)(c2ccccc2)O1; > 100 µM (inactive)

Find GI50 (SK-MEL-5) for the entry `O=C(Nc1ccccc1C(=O)O)C(=Cc1ccccc1O)NC(=O)c1ccccc1`
> 100 µM (inactive)
